Hey, just so you know, these numbers are from patent US12152038B2.

- assayed-system: human Arginine Vasopressin Receptor V2 (AVPR2) (Homo sapiens, UniProt P30518)
- Sequence (P30518 whole entry): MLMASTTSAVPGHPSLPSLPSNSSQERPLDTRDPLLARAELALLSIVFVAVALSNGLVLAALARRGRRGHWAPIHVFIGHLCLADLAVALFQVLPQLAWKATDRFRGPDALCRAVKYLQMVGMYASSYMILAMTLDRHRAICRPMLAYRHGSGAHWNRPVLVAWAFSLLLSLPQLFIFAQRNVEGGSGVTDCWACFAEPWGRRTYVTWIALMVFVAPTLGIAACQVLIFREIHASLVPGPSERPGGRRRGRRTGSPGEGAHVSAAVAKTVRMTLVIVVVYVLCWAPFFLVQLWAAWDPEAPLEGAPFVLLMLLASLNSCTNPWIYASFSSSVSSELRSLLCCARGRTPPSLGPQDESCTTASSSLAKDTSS
- experimental-details: Vasopressin V2 receptor antagonist assay (TR-FRET cAMP, 1321N1 cells)
pIC50: −log10 of the molar value.
Below is a list of entries, each paired with its recorded pIC50 value.

Some molecules with recorded pIC50:
[
  {
    "molecule": "Cc1ccnc(N2CC3(CN(C(=O)N4c5ccc(Cl)cc5OCC4C)C3)C2)c1 (stereo not shown)",
    "assayed-system": "human Arginine Vasopressin Receptor V2 (AVPR2) (Homo sapiens, UniProt P30518)",
    "pIC50": "> 7.00"
  },
  {
    "molecule": "CC1COc2cc(F)ccc2N1C(=O)N1CC2(C1)CN(c1ccc(F)cn1)C2 (stereo not shown) [12-1]",
    "assayed-system": "human Arginine Vasopressin Receptor V2 (AVPR2) (Homo sapiens, UniProt P30518)",
    "pIC50": "6.30 to 7.00"
  },
  {
    "molecule": "Cc1nccnc1N1CC2(CN(C(=O)N3c4ccc(Cl)cc4OCC3C)C2)C1 (stereo not shown) [20-10]",
    "assayed-system": "human Arginine Vasopressin Receptor V2 (AVPR2) (Homo sapiens, UniProt P30518)",
    "pIC50": "6.00 to 6.30"
  },
  {
    "molecule": "COc1ccnc(N2CC3(CN(C(=O)N4c5ccc(Cl)cc5OCC4C)C3)C2)c1 (stereo not shown) [20-8]",
    "assayed-system": "human Arginine Vasopressin Receptor V2 (AVPR2) (Homo sapiens, UniProt P30518)",
    "pIC50": "6.30 to 7.00"
  },
  {
    "molecule": "CC1COc2cc(Cl)ccc2N1C(=O)N1CC2(C1)CN(c1cc(C#N)ccn1)C2 (single isomer, unassigned) [20-6-B]",
    "assayed-system": "human Arginine Vasopressin Receptor V2 (AVPR2) (Homo sapiens, UniProt P30518)",
    "pIC50": "> 7.00"
  }
]

Entry under test: O=C(N1CC2(C1)CN(c1cnccn1)C2)N1CCC(O)c2cc(Cl)ccc21 (stereo not shown) [13-3] . Its pIC50 was ≤ 6.00

Entry under test: CC1CN(C(=O)N2CC3(C2)CN(c2ccc(F)cn2)C3)c2ccc(Cl)cc2O1 (single isomer, unassigned) [9-3-A] . Its pIC50 was ≤ 6.00

Entry under test: CC1COc2cc(Cl)ccc2N1C(=O)N1CC2(C1)CN(c1noc3ccccc13)C2 (stereo not shown) . Its pIC50 was ≤ 6.00

Entry under test: `O=C(N1CC2(C1)CN(c1ccc(F)c(F)n1)C2)N1CCOc2cc(Cl)ccc21` . Its pIC50 was ≤ 6.00

Entry under test: O=C(N1CC2(C1)CN(c1cnccn1)C2)N1CCC(O)c2cc(Cl)ccc21 (single isomer, unassigned) [13-3-A] . Its pIC50 was ≤ 6.00

Entry under test: Cc1ccnc(N2CC3(CN(C(=O)N4c5ccc(Cl)cc5OCC4C)C3)C2)n1 (single isomer, unassigned) [20-12-B] . Its pIC50 was > 7.00

Entry under test: `O=C(N1CC2(C1)CN(c1cnccn1)C2)N1CCOc2cc(Cl)ccc21` . Its pIC50 was ≤ 6.00

Entry under test: Cc1cncc(N2CC3(CN(C(=O)N4c5ccc(F)cc5OCC4C)C3)C2)n1 (single isomer, unassigned) [20-2-B] . Its pIC50 was > 7.00

Entry under test: CC1COc2cc(Cl)c(F)cc2N1C(=O)N1CC2(C1)CN(c1ncccn1)C2 (single isomer, unassigned) [19-2-B] . Its pIC50 was 6.30 to 7.00

Entry under test: CC1COc2cc(F)ccc2N1C(=O)N1CC2(C1)CN(c1ncccc1F)C2 (stereo not shown) [1-67] . Its pIC50 was ≤ 6.00

Entry under test: COc1ccc2c(c1)OCC(C)N2C(=O)N1CC2(C1)CN(c1ccc(F)cn1)C2 (single isomer, unassigned) . Its pIC50 was 6.30 to 7.00

Entry under test: `O=C(N1CC2(C1)CN(c1ccc(F)cn1)C2)N1CCC(F)(F)c2cc(Cl)ccc21` . Its pIC50 was ≤ 6.00

Entry under test: CC1COc2cc(Cl)ccc2N1C(=O)N1CC2(C1)CN(c1cc(=O)n(C)cn1)C2 (single isomer, unassigned) . Its pIC50 was 6.00 to 6.30
